# TESTED ON: Serotonin 3 (5-HT3) receptor (Rattus norvegicus, UniProt P35563+Q9JJ16)
# Sequence (P35563 whole entry): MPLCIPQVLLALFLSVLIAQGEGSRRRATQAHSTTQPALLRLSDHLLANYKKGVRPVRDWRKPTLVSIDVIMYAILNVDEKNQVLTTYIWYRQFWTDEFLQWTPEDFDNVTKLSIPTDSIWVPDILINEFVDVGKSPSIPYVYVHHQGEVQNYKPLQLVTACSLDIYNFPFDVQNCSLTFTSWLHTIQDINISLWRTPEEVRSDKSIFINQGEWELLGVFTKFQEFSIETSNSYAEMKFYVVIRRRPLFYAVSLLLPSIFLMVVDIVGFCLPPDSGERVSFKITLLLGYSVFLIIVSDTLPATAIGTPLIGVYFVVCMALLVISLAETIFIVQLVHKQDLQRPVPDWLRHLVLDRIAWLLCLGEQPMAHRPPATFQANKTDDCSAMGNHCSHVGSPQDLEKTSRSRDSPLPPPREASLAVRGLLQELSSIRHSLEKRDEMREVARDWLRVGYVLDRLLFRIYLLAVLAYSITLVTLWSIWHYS
# Sequence (Q9JJ16 whole entry): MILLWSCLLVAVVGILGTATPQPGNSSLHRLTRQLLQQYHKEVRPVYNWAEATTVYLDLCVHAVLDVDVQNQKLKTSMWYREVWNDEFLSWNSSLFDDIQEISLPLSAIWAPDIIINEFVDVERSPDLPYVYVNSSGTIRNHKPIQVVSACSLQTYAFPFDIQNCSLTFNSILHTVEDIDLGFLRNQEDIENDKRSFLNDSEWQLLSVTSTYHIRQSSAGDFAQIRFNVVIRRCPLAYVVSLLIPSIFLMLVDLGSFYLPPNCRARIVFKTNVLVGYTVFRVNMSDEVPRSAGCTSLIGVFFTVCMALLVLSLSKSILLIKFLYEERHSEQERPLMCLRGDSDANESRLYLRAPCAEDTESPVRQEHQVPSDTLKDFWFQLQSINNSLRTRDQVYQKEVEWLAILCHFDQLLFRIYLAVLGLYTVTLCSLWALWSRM
# RUN DESCRIPTION: Binding affinity to 5-hydroxytryptamine 3 receptor using [3H]GR-65630 as radioligand in rat cortex
OBSERVABLE: Ki (nM)
Report only the number, with the unit nM understood.

Input: // query Ki value for entry CN1[C@@H]2CC[C@H]1C[C@@H](OC(=O)c1cc(Cl)cc(Cl)c1)C2
Output: 55

Input: // query Ki value for entry c1ccc2nc(N3CCNCC3)ccc2c1
Output: 1.41

Input: // query Ki value for entry CCN(CC)CCNC(=O)c1cc(Cl)c(N)cc1OC [METOCLOPRAMIDE]
Output: 200

Input: // query Ki value for entry CN1[C@@H]2CC[C@H]1C[C@@H](OC(=O)c1c[nH]c3ccccc13)C2
Output: 3.16
